- assay.protocol: Metabolic stabilities in hepatocytes
- Type: in vitro ADME
- experimental.context: human hepatocytes, compound 1 μM, sampling up to 24 hours
quantity.kind: Half-life time (h)
Express it in h; write the number only.

Incoming: Quick check: Half-life time of Cc1ccc(C(Nc2c(Nc3cccc(C(=O)N(C)C)c3O)c(=O)c2=O)C2CCCS2)o1 (single isomer, unassigned) [Example 2 (Enantiomer 1 of diastereoisomer 2)] ?
Outgoing: 3.55

Incoming: Return reported Half-life time; argument: Cc1ccc(C(Nc2c(Nc3cccc(C(=O)N(C)C)c3O)c(=O)c2=O)C2CCCS2)o1 (single isomer, unassigned) [Example 2 (Enantiomer 2 of diastereoisomer 2)]
Outgoing: 3.82

Incoming: Looking for the measured Half-life time of Cc1ccc(C(Nc2c(Nc3cccc(C(=O)N(C)C)c3O)c(=O)c2=O)C2(C)CCCO2)o1 (single isomer, unassigned) [1 (diastereoisomer 2)] , can you help?
Outgoing: 8.98

Incoming: Half-life time lookup needed for Cc1ccc(C(Nc2c(Nc3cccc(C(=O)N(C)C)c3O)c(=O)c2=O)C2CCCS2)o1 (single isomer, unassigned) [Example 2 (diastereoisomer 1)] , thanks.
Outgoing: 1.77

This collection of values is drawn from patent US9388149B2.
